Entries and their cytotoxicity at 10 µM
# TEST_SUMMARY: Toxicity liver stage against HepG2, at 10uM
# Type: cell-based
# Set-up: test concentration 10 uM, cell line HepG2-A16-CD81EGFP
# CONDITIONS: human, HepG2-A16-CD81EGFP cells; read-out: INHIBITION
MEASUREMENT_TYPE: cytotoxicity at 10 µM

>>> print(df.to_string())
                                    compound       measurement_type   value
 0     CNC(=O)c1cc2c(nc1NCC(C)C)CCN(CCOC)CC2  cytotoxicity at 10 µM   -147%
 1  NC(=O)C1CCCN1C(=O)c1cccc2c1OCO2 (stereo not given)  cytotoxicity at 10 µM  -9.56%
 2  O=C(C1CC=CC1)N1CCc2c(COCc3ccncc3)cncc2C1  cytotoxicity at 10 µM  -7.79%
 3  N#Cc1cccc(N2CCCC3(C2)CN(c2ncc(F)cn2)CCO3)n1 (stereo not given)  cytotoxicity at 10 µM   22.3%
 4  Cc1cc(C)c(CNC(=O)NCC2COCCO2)c(=O)[nH]1 (stereo not given)  cytotoxicity at 10 µM  -3.81%
 5  Cc1nc(CN2CCN(C(=O)CCC(=O)c3ccccc3)CC2)no1  cytotoxicity at 10 µM    3.7%
 6                 CCC(=O)NCc1ccccc1Cn1ccnc1  cytotoxicity at 10 µM  -1.21%
 7  Fc1ccc(CNCC2OCCc3cn(CC4CC4)nc32)cc1 (stereo not given)  cytotoxicity at 10 µM  0.925%
 8    COc1cc2c(cc1C(=O)N1CC(c3ccncc3)C1)CCC2  cytotoxicity at 10 µM  0.545%
 9           CCCNC(=O)CN1CCN(c2nc(CC)ns2)CC1  cytotoxicity at 10 µM  -3.53%
10  Cc1n[nH]c(SCCNC2CCN(c3nc4ccccc4s3)CC2)n1  cytotoxicity at 10 µM  -6.92%
11  CNC(=O)C1CCC2(CCNCC2)C1 (stereo not given)  cytotoxicity at 10 µM   6.41%
12  COc1ccc2cc(CN(C)C(C)c3nc(C(C)(C)C)no3)ccc2c1 (stereo not given)  cytotoxicity at 10 µM   1.44%
13     Cc1nc(CN(C)S(=O)(=O)c2ccc(F)cc2Br)no1  cytotoxicity at 10 µM  -6.26%
14  CC(C)CN1C[C@@H](C(=O)O)C[C@@H](C(=O)NCc2ccncc2)C1  cytotoxicity at 10 µM   -147%
15  Cc1cnn(CC2CCCN2Cc2nnc(-c3ccccc3)o2)c1 (stereo not given)  cytotoxicity at 10 µM  -9.86%
16        CCOCc1ccc(CNc2cncc(-n3cccn3)n2)cc1  cytotoxicity at 10 µM   20.8%
17  O=C(c1ccccn1)N1CCc2nc(-c3cnccn3)nc(O)c2C1  cytotoxicity at 10 µM  0.487%
18  O=C([C@@H]1C[C@@H]2CCN(Cc3ccc4c(c3)OCO4)C[C@@H]2O1)N1CCCC1  cytotoxicity at 10 µM  -2.46%
19  O=C(c1cccs1)N1CCC2(CC1)CN(c1ccsc1)C(=O)CO2  cytotoxicity at 10 µM  -70.5%
20  CCn1nc2c(cc1=O)CN(CC(=O)Nc1nc(C)c(C)s1)CC2  cytotoxicity at 10 µM   -8.8%
21  C[C@@H]1C(=O)NC[C@H]2CN(Cc3ccc4c(c3)OCO4)C[C@H]21  cytotoxicity at 10 µM   1.44%
22   Cc1ccc(N2CCN(C(=O)COc3nccc(C)n3)CC2)nn1  cytotoxicity at 10 µM  -25.1%
23  CCNC(=O)[C@@H]1C[C@@H](NC(=O)c2ccc(C#N)cc2)CN1CCCSC  cytotoxicity at 10 µM   -123%
24  Cn1cc(CN2C[C@H]3CCC[C@@H](CNc4ncccn4)[C@H]3C2)cn1  cytotoxicity at 10 µM  -2.57%
25  O=C(c1c[nH]cn1)N1CCC(F)(F)C2(CCN(c3cccc(F)c3)C2)C1 (stereo not given)  cytotoxicity at 10 µM   9.58%
26  CC(=O)N1CCC2(CC1)c1ncc(-c3ccccc3)n1CCN2C(C)=O  cytotoxicity at 10 µM   10.5%
27  Cc1cc(C)c(S(=O)(=O)Nc2c(C)noc2C)cc1C(=O)O  cytotoxicity at 10 µM  -8.18%
28  Cc1cc(C(=O)N2CCN(C(=O)CC(C)C)[C@@H]3CS(=O)(=O)C[C@@H]32)no1  cytotoxicity at 10 µM  -5.45%
29  CC(C)c1noc(C(C)N2CCN(Cc3cccc(C#N)c3)CC2)n1 (stereo not given)  cytotoxicity at 10 µM  -14.3%
30    O=C(NCc1ccc2c(c1)OCO2)N1CCCC2(C1)OCCO2  cytotoxicity at 10 µM   3.07%
31  CNc1nc2c(c(C(=O)N3CCCC3)n1)CN(C(=O)C1CCCC1)CC2  cytotoxicity at 10 µM   -114%
32  CCCc1n[nH]c(C2CN(C(=O)c3cc4c(s3)CCC4)CCO2)n1 (stereo not given)  cytotoxicity at 10 µM  -10.1%
33  O=C(O)[C@@]12CN(c3cnccn3)C[C@@H]1CN(C1CCCC1)C2  cytotoxicity at 10 µM  -10.3%
34  CCS(=O)(=O)CC(=O)Nc1cc(-c2cccc(F)c2F)n[nH]1  cytotoxicity at 10 µM   10.7%
35  CSCC(=O)N1CCN(CC(O)C(C)(C)C)CC1 (stereo not given)  cytotoxicity at 10 µM  -5.66%
36  COc1cccc(NC(=O)N2CC[C@@H]3CN(C)S(=O)(=O)[C@@H]3CC2)c1  cytotoxicity at 10 µM    7.3%
37      COc1c(CNCCNC(=O)c2cccc(C)c2)c(C)nn1C  cytotoxicity at 10 µM  -6.64%
38  CC(Cn1cncn1)NC(=O)NCC(C)(C)Cc1ccccc1 (stereo not given)  cytotoxicity at 10 µM     17%
39      Cc1cc(CN2CCN(c3nn4cc(C)nc4s3)CC2)on1  cytotoxicity at 10 µM    6.4%
40  COc1cc(N2CCC(c3nccn3CCCN(C)C)CC2)nc(N)n1  cytotoxicity at 10 µM  -7.41%
41  COC(=O)c1cccc(C(=O)NCc2ccc3c(c2)CCCN3C)c1  cytotoxicity at 10 µM  -11.7%
42  COC(=O)c1ccoc1CN(C1CC1)C1CCS(=O)(=O)C1 (stereo not given)  cytotoxicity at 10 µM   2.22%
43  Cc1cc(C(=O)Nc2ccc(N3CCCC3)cn2)ccc1-n1cncn1  cytotoxicity at 10 µM   19.8%
44    O=C(c1coc(COc2cccc3cnccc23)n1)N1CCSCC1  cytotoxicity at 10 µM  -77.9%
